# assayed target: PI3Kβ (Homo sapiens (Human))
# Sequence (P42338 whole entry, canonical isoform): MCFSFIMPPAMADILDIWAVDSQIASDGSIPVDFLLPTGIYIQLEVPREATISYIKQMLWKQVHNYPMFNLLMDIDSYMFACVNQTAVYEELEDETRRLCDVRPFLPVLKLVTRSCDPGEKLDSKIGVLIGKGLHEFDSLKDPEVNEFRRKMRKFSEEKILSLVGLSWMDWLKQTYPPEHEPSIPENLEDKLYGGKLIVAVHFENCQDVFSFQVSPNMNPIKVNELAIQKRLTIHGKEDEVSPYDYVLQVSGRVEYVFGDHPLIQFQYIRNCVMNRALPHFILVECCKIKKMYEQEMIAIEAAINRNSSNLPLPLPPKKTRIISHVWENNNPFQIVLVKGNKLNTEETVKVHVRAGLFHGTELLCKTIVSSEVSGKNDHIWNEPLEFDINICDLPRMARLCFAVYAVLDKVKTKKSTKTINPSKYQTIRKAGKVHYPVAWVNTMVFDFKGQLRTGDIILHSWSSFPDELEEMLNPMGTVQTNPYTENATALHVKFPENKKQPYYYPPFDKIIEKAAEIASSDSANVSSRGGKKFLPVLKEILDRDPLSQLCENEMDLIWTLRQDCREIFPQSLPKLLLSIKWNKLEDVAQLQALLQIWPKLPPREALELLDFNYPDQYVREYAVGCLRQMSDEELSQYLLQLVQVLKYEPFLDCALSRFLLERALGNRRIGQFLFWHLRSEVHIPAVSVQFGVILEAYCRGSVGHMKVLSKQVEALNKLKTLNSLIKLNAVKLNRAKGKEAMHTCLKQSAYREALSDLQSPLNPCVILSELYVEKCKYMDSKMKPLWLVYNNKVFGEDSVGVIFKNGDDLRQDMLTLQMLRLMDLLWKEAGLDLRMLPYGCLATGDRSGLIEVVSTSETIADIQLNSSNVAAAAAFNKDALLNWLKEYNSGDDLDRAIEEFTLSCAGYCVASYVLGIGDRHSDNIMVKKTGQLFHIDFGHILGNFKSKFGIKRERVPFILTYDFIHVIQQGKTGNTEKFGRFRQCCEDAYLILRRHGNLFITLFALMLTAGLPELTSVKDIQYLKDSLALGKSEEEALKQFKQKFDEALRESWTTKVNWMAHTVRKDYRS
# Sequence (P27986 whole entry partner, canonical isoform): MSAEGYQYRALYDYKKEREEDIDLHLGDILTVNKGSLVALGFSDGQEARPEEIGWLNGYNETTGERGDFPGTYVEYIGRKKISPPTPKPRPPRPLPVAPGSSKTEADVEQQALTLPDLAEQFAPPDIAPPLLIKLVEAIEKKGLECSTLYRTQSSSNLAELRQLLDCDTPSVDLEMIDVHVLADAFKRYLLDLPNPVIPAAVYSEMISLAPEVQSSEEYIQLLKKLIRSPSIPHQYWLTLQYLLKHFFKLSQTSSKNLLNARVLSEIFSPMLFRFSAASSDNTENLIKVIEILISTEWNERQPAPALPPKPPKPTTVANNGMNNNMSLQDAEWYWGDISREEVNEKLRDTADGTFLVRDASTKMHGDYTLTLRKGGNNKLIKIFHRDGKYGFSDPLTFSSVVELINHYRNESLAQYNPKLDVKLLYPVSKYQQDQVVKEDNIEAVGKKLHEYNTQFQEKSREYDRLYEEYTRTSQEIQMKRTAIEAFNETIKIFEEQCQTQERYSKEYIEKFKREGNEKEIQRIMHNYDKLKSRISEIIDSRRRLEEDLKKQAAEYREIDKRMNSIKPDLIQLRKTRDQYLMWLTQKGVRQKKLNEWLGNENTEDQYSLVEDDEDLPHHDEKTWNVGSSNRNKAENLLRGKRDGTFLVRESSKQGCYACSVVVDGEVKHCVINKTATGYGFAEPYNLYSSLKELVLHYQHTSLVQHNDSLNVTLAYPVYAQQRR
# protocol description: PI3K isoform TR-FRET enzymatic assay (PI3Kβ)
# details: 2× Km ATP, 30 minutes at 25° C.
Each entry below carries its reported log10(IC50).
recorded endpoint: log10(IC50) (log10 of the value in nM)

>>> data_value("CCCc1nc2c(-c3nnc[nH]3)cc(N3CCOCC3)cc2n1-c1ccnc2c(F)cccc12 [Example 141]")
1.00
>>> data_value("Cc1nc2c(-c3nnc[nH]3)cc(N3CCOCC3)c(F)c2n1-c1ccnc2c(Cl)cccc12")
1.28
>>> data_value("CCCc1nc2c(-c3cnc(Cl)[nH]3)cc(N3CCOCC3)cc2n1-c1ccnc2c(Cl)cc(F)cc12")
1.32
>>> data_value("CCc1nnc(-c2cc(N3CCOCC3)cc3c2nc(C)n3-c2ccnc3c(Cl)cccc23)[nH]1")
1.23
>>> data_value("Clc1cccc2c(-n3c(-c4ccncc4)nc4c(-c5nnc[nH]5)cc(N5CCOCC5)cc43)ccnc12")
1.69
>>> data_value("Cc1nc2c(-c3nnco3)cc(N3CCOCC3)cc2n1-c1ccnc2c(Cl)cccc12")
1.89
>>> data_value("Cc1nnc(-c2cc(N3CCOCC3)cc3c2nc(CC2CC2)n3-c2ccnc3c(Cl)cccc23)[nH]1")
1.51
>>> data_value("Cc1nc2c(-c3cnc(Cl)[nH]3)cc(N3CCOCC3)cc2n1-c1ccnc2c(Cl)cc(F)cc12")
1.38
>>> data_value("Cc1nnc(-c2cc(N3CCOCC3)cc3c2nc(C)n3-c2ccnc3c(F)ccc(F)c23)[nH]1 (atropisomer, axis not shown) [Compound 351]")
2.66
>>> data_value("Cc1nnc(-c2cc(N3CCOCC3)cc3c2nc(C)n3-c2ccnc3c(F)ccc(F)c23)[nH]1 [Example 51]")
1.18
>>> data_value("c1ccc(-c2nc3c(-c4nnc[nH]4)cc(N4CCOCC4)cc3n2-c2ccnc3ccccc23)nc1")
1.49
>>> data_value("Cc1nc2c(-c3ncco3)cc(N3CCOCC3)cc2n1-c1ccnc2c(F)cccc12 (atropisomer, axis not shown) [Example 341]")
0.78
>>> data_value("Clc1cccc2c(-n3c(C4CCC4)nc4c(-c5nnc[nH]5)cc(N5CCOCC5)cc43)ccnc12")
0.90
>>> data_value("Cc1cc(-c2cc(N3CCOCC3)cc3c2nc(C)n3-c2ccnc3c(Cl)cccc23)n[nH]1")
2.50
>>> data_value("CCCc1nc2c(-c3nnc[nH]3)cc(N3CCOCC3)cc2n1-c1ccnc2ccccc12")
1.32
>>> data_value("Cc1nnc(-c2cc(N3CCOCC3)cc3c2ncn3-c2ccnc3c(Cl)cccc23)[nH]1")
1.20
>>> data_value("c1ccc2c(-n3c(C4CC4)nc4c(-c5nnc[nH]5)cc(N5CCOCC5)cc43)ccnc2c1")
1.78
>>> data_value("Cc1nc2c(-c3n[nH]c(=S)o3)cc(N3CCOCC3)cc2n1-c1ccnc2cc(F)ccc12")
2.11
>>> data_value("COCCc1nc2c(-c3nnc[nH]3)cc(N3CCOCC3)cc2n1-c1ccnc2c(Cl)cccc12")
1.32
>>> data_value("Cc1nc2c(-c3ncco3)cc(N3CCOCC3)cc2n1-c1ccnc2c(Cl)cccc12")
0.90
>>> data_value("Cc1nc2c(-c3nnc[nH]3)cc(N3CCOCC3)cc2n1-c1ccnc2cccc(F)c12")
1.04
>>> data_value("Fc1ccc(F)c2c(-n3cnc4c(-c5nnc[nH]5)cc(N5CCOCC5)cc43)ccnc12")
0.48
>>> data_value("Cc1cc(-n2c(C)nc3c(-c4nc(C)n[nH]4)cc(N4CCOCC4)cc32)c2cccc(C(F)(F)F)c2n1")
1.99
>>> data_value("CCCc1nc2c(-c3ccn[nH]3)cc(N3CCOCC3)cc2n1-c1ccnc2c(F)ccc(F)c12 (atropisomer, axis not shown) [Compound 368]")
1.26
>>> data_value("Cc1nnc(-c2cc(N3CCOCC3)cc3c2nc(C(C)C)n3-c2ccnc3c(Cl)cccc23)[nH]1")
1.69
>>> data_value("Cc1nc2c(-c3ccoc3)cc(N3CCOCC3)cc2n1-c1ccnc2c(Cl)cccc12")
1.94
>>> data_value("CCc1nc2c(-c3cnc(C)[nH]3)cc(N3CCOCC3)cc2n1-c1ccnc2c(Cl)cccc12")
1.32
>>> data_value("Cc1nc2c(-c3nnn[nH]3)cc(N3CCOCC3)cc2n1-c1ccnc2c(Cl)cccc12")
1.36
